src = patent US5968912A

ASSAY TEXT: Single dose range-finding toxicity study in mice
Format: in vivo, mouse (Swiss Webster)
EXPERIMENTAL PARAMETERS: mouse, in vivo; single IV administration, mice; read-out: maximum tolerated dose (MTD)
MEASUREMENT NAME: MTD

Param item = `CCCN(CCC)c1ncnc2c1ncn2[C@@H]1O[C@@H]2COP(=O)(O)O[C@H]2[C@H]1O` ; retrieve measured MTD.
≥ 400 mg/kg

---

Consider the following compounds and their measured inhibition at 1 µM readings.
Test system: mononuclear leukocytes (Two-way MLR)
ASSAY TEXT: Two-way mixed leukocyte reaction (MLR), 3H-thymidine incorporation
Assay type: cell-based, human
EXPERIMENTAL PARAMETERS: Homo sapiens, Leukocyte; 1 μM
Write it as a number; the unit % goes unstated.

Param item = CCCN(CCC)c1ncnc2c1ncn2[C@@H]1O[C@H](CO)[C@@H](O)[C@H]1O [Compound 1-46] ; retrieve measured inhibition at 1 µM.
12

---
Param item = CCCCN(CCCC)c1ncnc2c1ncn2[C@@H]1O[C@@H]2COP(=O)(O)O[C@H]2[C@H]1O [Compound 1-24] ; retrieve measured inhibition at 1 µM.
78

---

Consider the following compounds and their measured inhibition at 1 µM readings.
Tested on: mononuclear leukocytes (Two-way MLR)
ASSAY TEXT: Two-way mixed leukocyte reaction (MLR), 3H-thymidine incorporation
Type: cell-based, human
EXPERIMENTAL PARAMETERS: Homo sapiens, Leukocyte; 1 μM
Write it as a number; the unit % goes unstated.

Param item = Cc1ccc(S(=O)(=O)O[C@@H]2[C@@H]3OP(=O)(O)OC[C@H]3O[C@H]2n2cnc3c(N)ncnc32)cc1 [Compound 1-5, 2'-O-Tosyl-c-AMP] ; retrieve measured inhibition at 1 µM.
25

Follow-up item: CCCN(CCC)c1ncnc2c1ncn2[C@@H]1O[C@@H]2COP(=O)(O)O[C@H]2[C@H]1OS(=O)(=O)c1ccc(C)cc1 [Compound 1-15, N^6,N^6-di-n-Propyl-2'-O-tosyl-c-AMP]
9

Follow-up item: CCN(CC)c1ncnc2c1ncn2[C@@H]1O[C@H](CO)[C@@H](O)[C@H]1O [Compound 1-50]
13

Follow-up item: CCCNc1ncnc2c1ncn2[C@@H]1O[C@@H]2COP(=O)(O)O[C@H]2[C@H]1O [Compound 1-16]
12.5

Follow-up item: C=C[C@@]1(C)CC(=O)[C@]2(O)[C@@]3(C)[C@@H](O)CCC(C)(C)[C@@H]3[C@H](O)[C@H](OC(C)=O)[C@@]2(C)O1 [Forskolin, reference compound]
31

---
Param item = CCCN(CCC)c1ncnc2c1nc(SCc1ccccc1)n2[C@@H]1O[C@@H]2COP(=O)(O)O[C@H]2[C@H]1O [Compound 1-42] ; retrieve measured inhibition at 1 µM.
0

Follow-up item: CCCN(CCC)c1ncnc2c1ncn2[C@@H]1O[C@@H]2COP(=O)(O)O[C@H]2[C@H]1O [HE-33, N^6,N^6 -di-n-Propyl-c-AMP]
81

Follow-up item: CCCCN(CCCC)c1ncnc2c1ncn2[C@@H]1O[C@@H]2COP(=O)(O)O[C@H]2[C@H]1OS(=O)(=O)c1ccc(C)cc1 [Compound 1-22]
4
